# testName: Quantitative High-Throughput drug screen in 47 multiple myeloma cell lines against the NCATS MIPE library collection: AMO1_DSMZ cell viability assay (AID 1918927; note: nearly all actives have a fitted effect of over 30% in size)
# conditionContext: AMO1 myeloma cells viability, CellTiter-Glo ATP luminescence, 48 h; series mostly up to 45.8 µM
Inconclusive results are not listed. The source made the active and inactive calls. Calls come from the whole dose curve; as a rule, active = well fitted cell-killing curve with a large enough effect; inconclusive = small, poorly fitted or top-dose-only effect, or effect the other way; inactive = no such curve, though single readings can be large or run the other way.
The categories you may choose from are active, inactive

Worked set:
Cn1c2cc(S(C)=O)sc2c2cnn(Cc3cccc(N)c3)c(=O)c21 (centres undefined) :: inactive
CCCCN1CCC(CNC(=O)c2c3n(c4ccccc24)CCCO3)CC1 :: active
CC[C@@H]1C(=O)N(C)c2cnc(Nc3ccc(C(=O)NC4CCC(N5CCN(CC6CC6)CC5)CC4)cc3OC)nc2N1C(C)C (some centres undefined) :: active
O=C(O)c1ccc2cc(-c3ccc(O)c(C45CC6CC(CC(C6)C4)C5)c3)ccc2c1 :: active
CCC(=C(c1ccccc1)c1ccc(OCCN(C)C)cc1)c1ccccc1 :: active

Proceed to the following item.
[ask] Lab log entry: `C[C@@H](Oc1cc(-c2cnn(C3CCNCC3)c2)cnc1N)c1c(Cl)ccc(F)c1Cl` — outcome as called in the assay?
[reply] active
